# Tested on: Phytophthora infestans
# Method Summary: Antifungal activity against Phytophthora infestans assessed as inhibition at 25 mg/L relative to control
# Type: functional
I'd be grateful if you could share measured inhibition at 25 µg/mL for these entries.
State just the number; it will be interpreted in %.

Q. Fill in: inhibition at 25 µg/mL of CNC(=O)/C(=N/OC)c1ccccc1COc1c(C)c(-c2ccc(C)cc2)nn1C is ___
A. 100

Q. Fill in: inhibition at 25 µg/mL of CNC(=O)/C(=N/OC)c1ccccc1COc1cc(-c2ccc(C)c(C)c2)nn1C is ___
A. 100

Q. Fill in: inhibition at 25 µg/mL of CNC(=O)/C(=N/OC)c1ccccc1COc1c(C)c(-c2ccc(C)c(C)c2)nn1C is ___
A. 100

Q. Fill in: inhibition at 25 µg/mL of CO/N=C(/C(=O)OC)c1ccccc1COc1c(C)c(-c2ccc(C)cc2C)nn1C is ___
A. 100

Q. Fill in: inhibition at 25 µg/mL of CNC(=O)/C(=N/OC)c1ccccc1COc1cc(-c2ccc(C)cc2C)nn1C is ___
A. 100

Q. Fill in: inhibition at 25 µg/mL of CO/N=C(/C(=O)OC)c1ccccc1COc1c(C)c(-c2ccc(Cl)cc2)nn1C is ___
A. 100

Q. Fill in: inhibition at 25 µg/mL of CNC(=O)/C(=N/OC)c1ccccc1COc1cc(-c2ccc(OC)cc2)nn1C is ___
A. 100

Q. Fill in: inhibition at 25 µg/mL of CCc1ccc(-c2nn(C)c(OCc3ccccc3/C(=N\OC)C(=O)NC)c2C)cc1 is ___
A. 100

Q. Fill in: inhibition at 25 µg/mL of CCOc1ccc(-c2nn(C)c(OCc3ccccc3/C(=N\OC)C(=O)NC)c2C)cc1 is ___
A. 100

Q. Fill in: inhibition at 25 µg/mL of CO/N=C(/C(=O)OC)c1ccccc1COc1cc(-c2ccc(C)cc2C)nn1C is ___
A. 100

Q. Fill in: inhibition at 25 µg/mL of CNC(=O)/C(=N/OC)c1ccccc1COc1c(C)c(-c2cc(C)ccc2C)nn1C is ___
A. 100

Q. Fill in: inhibition at 25 µg/mL of CCOc1ccc(-c2nn(C)c(OCc3ccccc3/C(=N\OC)C(=O)OC)c2C)cc1 is ___
A. 100

Q. Fill in: inhibition at 25 µg/mL of CNC(=O)/C(=N/OC)c1ccccc1COc1c(C)c(-c2ccc(Cl)cc2)nn1C is ___
A. 100

Q. Fill in: inhibition at 25 µg/mL of CO/N=C(/C(=O)OC)c1ccccc1COc1c(C)c(-c2ccc(OCC(F)(F)F)cc2)nn1C is ___
A. 50

Q. Fill in: inhibition at 25 µg/mL of CO/N=C(/C(=O)OC)c1ccccc1COc1cc(-c2ccc(OC)cc2)nn1C is ___
A. 100

Q. Fill in: inhibition at 25 µg/mL of CO/N=C(/C(=O)OC)c1ccccc1COc1cc(-c2ccccc2OC)nn1C is ___
A. 0

Q. Fill in: inhibition at 25 µg/mL of CO/N=C(/C(=O)OC)c1ccccc1COc1ccccc1C [KRESOXIM-METHYL] is ___
A. 100

Q. Fill in: inhibition at 25 µg/mL of CNC(=O)/C(=N/OC)c1ccccc1COc1c(C)c(-c2ccc(OC)cc2)nn1C is ___
A. 80

Q. Fill in: inhibition at 25 µg/mL of CO/N=C(/C(=O)OC)c1ccccc1COc1c(C)c(-c2ccc(OC)cc2)nn1C is ___
A. 100

Q. Fill in: inhibition at 25 µg/mL of CNC(=O)/C(=N/OC)c1ccccc1COc1cc(-c2ccccc2OC)nn1C is ___
A. 0
